Measurement protocol: Vero E6 cell cytotoxicity, dose response, cytotoxicity control for P. falciparum PFM18AAP inhibitor project, M18 aspartyl aminopeptidase campaign (AID 588714)
Condition summary: Vero E6 viability, CellTiter-Glo luminescence, 72 h; at 50 µM (top of the series)
Results filed as inconclusive are left out.
# viability values compiled below
Recorded endpoint: viability (%)

>>> result_value("COc1ccc(CCN(C)c2ccncc2)cc1OC")
83.9
>>> result_value("COc1ccc(CCNC2CCN(C)CC2)cc1OC")
97.5
>>> result_value("O=C(c1ccco1)N1CCN(Cc2cc(=O)c(O)co2)CC1")
92.2
>>> result_value("Oc1ccc(CCN2CCc3ccccc3C2)cc1O")
85.7
>>> result_value("CCC(C)C(=O)Nc1ccccc1O (configuration not stated)")
99.8
>>> result_value("COc1ccc(CCC(=O)O)cc1OC")
94.6
>>> result_value("COc1ccc(CCNc2ccncc2)cc1OC")
87.5

* * *

# viability values compiled below
Measurement protocol: Vero E6 cell cytotoxicity, dose response, cytotoxicity control for P. falciparum PFM18AAP inhibitor project, M18 aspartyl aminopeptidase campaign (AID 588714)
Condition summary: Vero E6 viability, CellTiter-Glo luminescence, 72 h; at 50 µM (top of the series)
Results filed as inconclusive are left out.
Recorded endpoint: viability (%)

>>> result_value("Oc1ccc(CCNc2c3c(nc4ccccc24)CCCC3)cc1O")
92.2
>>> result_value("COc1ccc(CC(=O)O)cc1OC")
108
>>> result_value("COc1ccc(CCN2CCN(C)CC2)cc1OC")
98
>>> result_value("CN(CCc1ccc(O)c(O)c1)c1ccncc1")
99.3
>>> result_value("O=C1OCCN1CCc1nc(-c2ccc(O)c(O)c2)cs1")
92.6
>>> result_value("Nc1cc(C(=O)c2ccccc2)ccc1O")
104
>>> result_value("Cc1c(-c2ccccc2)[nH]c(-c2ccc(O)c(O)c2)[n+]1O")
97.2
>>> result_value("CCC(C)C(=O)Nc1ccccc1N (stereo not drawn)")
105
>>> result_value("CCC(C)c1ccc(N)c(O)c1 (stereo not drawn)")
103
>>> result_value("O=c1cc(CO)oc(CN2CCCCC2)c1O")
99.7
>>> result_value("O=C(c1ccco1)N1CCN(Cc2cc(=O)c(O)c[nH]2)CC1")
100
>>> result_value("COc1ccc(CCN2CCc3ccccc3C2)cc1OC")
86.9
>>> result_value("Cc1c(O)c(=O)ccn1CCNc1c2ccccc2nc2ccccc12")
89.4
